What EC50 (antiviral activity, TZM-bl cells, luciferase) was measured for each of the following?
target: gp120 of viral strain Bal (HIV, strain Bal); assay: cell-based or functional assay
[ ]: non-standard residue; d: D form. Bip = N[C@@H](Cc1ccc(-c2ccccc2)cc1)C(=O)O; Tpa = thiopropionic acid
I only need the number, in nM, no unit after it.

Form field EC50 (antiviral activity, TZM-bl cells, luciferase), entry Tpa-NLHKCQLRCSSLGLLGRCAGS[Bip]CACV-NH2 (disulfide (positions not given here); also: three disulphide bridges, pairing not given here) [mCD4.1] : 236

Form field EC50 (antiviral activity, TZM-bl cells, luciferase), entry mCD4.3-PS1 (not fully specified; N-terminal gamma-aminobutyric acid (gammaAbu) acylated with 3-thiopropionyl (from SATP); all six Tyr are sulfotyrosine (YSO3); N-terminal Tpa; D-proline at position 21; U1 (4-cyclohexylmethoxy-L-phenylalanine) at position 23; C-terminal amide; Lys5 N-epsilon carries the PEO2-maleimide linker bound to the thiol of the PS1 chain) peptide 1: NLHKCQLRCRSLGLLGRCAPTFCACV peptide 2: SYDYSYDYSYDYS : 0.031

Form field EC50 (antiviral activity, TZM-bl cells, luciferase), entry mCD4.2-PS1 (not fully specified; N-terminal gamma-aminobutyric acid (gammaAbu) acylated with 3-thiopropionyl (from SATP); all six Tyr are sulfotyrosine (YSO3); N-terminal Tpa; D-proline at position 21; U1 (4-cyclohexylmethoxy-L-phenylalanine) at position 23; C-terminal amide; Lys5 N-epsilon carries the PEO2-maleimide linker bound to the thiol of the PS1 chain) peptide 1: NLHKCQLRCSSLGLLGRCAPTFCACV peptide 2: SYDYSYDYSYDYS : 0.034
